# test.system: HLA-A*01:01
# measurement.protocol: IEDB peptide-MHC binding, purified MHC/competitive/radioactivity; filed as Kd, often an IC50 or EC50 that approximates it; bounds were set here for any values at or beyond the usual limits of such assays
# test.context: source organism: Lymphocytic choriomeningitis virus (strain WE)
endpoint.name: Kd (µM)
Give bare numbers, in µM.

[ask] Which Kd value is on record for `MTKEASREY` ?
[reply] 3.01

====

# test.system: HLA-B*35:01
# measurement.protocol: IEDB peptide-MHC binding, purified MHC/direct/fluorescence; filed as Kd, often an IC50 or EC50 that approximates it; bounds were set here for any values at or beyond the usual limits of such assays
# test.context: source organism: Yersinia pestis
endpoint.name: Kd (nM)
Answers are plain numbers, in nM.

[ask] Which Kd value is on record for `YLHRDIFDI` ?
[reply] 113

====

# test.system: HLA-A*29:02
# measurement.protocol: IEDB peptide-MHC binding, purified MHC/direct/fluorescence; filed as Kd, often an IC50 or EC50 that approximates it; bounds were set here for any values at or beyond the usual limits of such assays
# test.context: source organism: Rio Mamore hantavirus
pKd: −log10 of the molar value.
endpoint.name: pKd

[ask] Which pKd value is on record for `LQPSDTLLF` ?
[reply] ≤ 4.70

====

# test.system: HLA-B*58:01
# measurement.protocol: IEDB peptide-MHC binding, purified MHC/competitive/radioactivity; filed as Kd, often an IC50 or EC50 that approximates it; bounds were set here for any values at or beyond the usual limits of such assays
# test.context: source organism: Dengue virus 1 Brazil/97-11/1997
endpoint.name: Kd (nM)
Answers are plain numbers, in nM.

[ask] Which Kd value is on record for `KVRKDIPQW` ?
[reply] 5.97

====

# test.system: HLA-A*11:01
# measurement.protocol: IEDB peptide-MHC binding, purified MHC/direct/fluorescence; filed as Kd, often an IC50 or EC50 that approximates it; bounds were set here for any values at or beyond the usual limits of such assays
# test.context: source organism: Influenza A virus (A/goose/Hong Kong/8/1976(H1N1))
pKd: −log10 of the molar value.
endpoint.name: pKd

[ask] Which pKd value is on record for `KTTYWWDGL` ?
[reply] ≤ 4.70

====

# test.system: HLA-B*18:01
# measurement.protocol: IEDB peptide-MHC binding, purified MHC/direct/fluorescence; filed as Kd, often an IC50 or EC50 that approximates it; bounds were set here for any values at or beyond the usual limits of such assays
# test.context: source organism: Francisella tularensis subsp. tularensis FSC033
endpoint.name: Kd (µM)
Numbers only, in µM.

[ask] Which Kd value is on record for `IYTVIYYIF` ?
[reply] 8.93

====

# test.system: HLA-B*15:17
# measurement.protocol: IEDB peptide-MHC binding, purified MHC/competitive/fluorescence; filed as Kd, often an IC50 or EC50 that approximates it; bounds were set here for any values at or beyond the usual limits of such assays
# test.context: source organism: Araucaria virus
pKd: −log10 of the molar value.
endpoint.name: pKd

[ask] Which pKd value is on record for `AFMATNKAY` ?
[reply] ≤ 4.70

====

# test.system: HLA-B*27:03
# measurement.protocol: IEDB peptide-MHC binding, purified MHC/competitive/fluorescence; filed as Kd, often an IC50 or EC50 that approximates it; bounds were set here for any values at or beyond the usual limits of such assays
# test.context: source organism: Orthohantavirus negraense
endpoint.name: Kd

[ask] Which Kd value is on record for `NIYETEFFM` ?
[reply] ≥ 20 µM

====

# test.system: HLA-A*26:02
# measurement.protocol: IEDB peptide-MHC binding, purified MHC/direct/fluorescence; filed as Kd, often an IC50 or EC50 that approximates it; bounds were set here for any values at or beyond the usual limits of such assays
# test.context: source organism: Mycobacterium tuberculosis str. Haarlem
pKd: −log10 of the molar value.
endpoint.name: pKd

[ask] Which pKd value is on record for `KYFVRSTEK` ?
[reply] ≤ 4.70

====

# test.system: HLA-A*68:02
# measurement.protocol: IEDB peptide-MHC binding, purified MHC/competitive/fluorescence; filed as Kd, often an IC50 or EC50 that approximates it; bounds were set here for any values at or beyond the usual limits of such assays
# test.context: source organism: Francisella tularensis subsp. tularensis FSC198
endpoint.name: pKd
Numbers only, as −log10 of the molar value.

[ask] API: value(readout= pKd, system= HLA-A*68:02, query= `IYTVIYYIF` )
[reply] 5.40

====

# test.system: HLA-A*02:01
# measurement.protocol: IEDB peptide-MHC binding, purified MHC/competitive/fluorescence; bounds were set here for any values at or beyond the usual limits of such assays
# test.context: source organism: Zaire ebolavirus
Field: IC50. Provide a value for each of the sequences that follow.
Numbers only, in µM.

[[record]]
chain = "VMNHKNKFM"
endpoint_name = "IC50"
unit_of_measure = "µM"
value_reported = 3.51


// each listed sequence needs a value for IC50
1. ASLFLPKLV
2. SFFLWVIIL
3. SSTNQLRSV

[reply]
1. 11.9
2. 14.6
3. 48.2

====

# test.system: HLA-A*03:01
# measurement.protocol: IEDB peptide-MHC binding, purified MHC/competitive/fluorescence; filed as Kd, often an IC50 or EC50 that approximates it; bounds were set here for any values at or beyond the usual limits of such assays
# test.context: source organism: Shigella boydii CDC 3083-94
endpoint.name: Kd (nM)
One number for each entry, in nM.

[ask] API: value(readout= Kd, system= HLA-A*03:01, query= `RIHGLGFCY` )
[reply] 608

====

# test.system: HLA-A*31:01
# measurement.protocol: IEDB peptide-MHC binding, purified MHC/direct/fluorescence; filed as Kd, often an IC50 or EC50 that approximates it; bounds were set here for any values at or beyond the usual limits of such assays
# test.context: source organism: Yersinia pestis Nepal516
endpoint.name: Kd

[ask] API: value(readout= Kd, system= HLA-A*31:01, query= `YLHRDIFDI` )
[reply] ≥ 20 µM

====

# test.system: HLA-B*35:01
# measurement.protocol: IEDB peptide-MHC binding, purified MHC/direct/fluorescence; filed as Kd, often an IC50 or EC50 that approximates it; bounds were set here for any values at or beyond the usual limits of such assays
# test.context: source organism: Corynebacterium glutamicum
endpoint.name: Kd (nM)
Numbers only, in nM.

[ask] Which Kd value is on record for `IVAWTRTAT` ?
[reply] 893

====

# test.system: HLA-B*58:01
# measurement.protocol: IEDB peptide-MHC binding, purified MHC/direct/fluorescence; filed as Kd, often an IC50 or EC50 that approximates it; bounds were set here for any values at or beyond the usual limits of such assays
# test.context: source organism: Camelpox virus M-96
endpoint.name: Kd

[ask] API: value(readout= Kd, system= HLA-B*58:01, query= `SLYKYLLLR` )
[reply] ≥ 20 µM

====

# test.system: HLA-A*02:16
# measurement.protocol: IEDB peptide-MHC binding, purified MHC/direct/fluorescence; filed as Kd, often an IC50 or EC50 that approximates it; bounds were set here for any values at or beyond the usual limits of such assays
# test.context: source organism: Araucaria virus
pKd: −log10 of the molar value.
endpoint.name: pKd

[ask] API: value(readout= pKd, system= HLA-A*02:16, query= `AFMATNKAY` )
[reply] ≤ 4.70

====

# test.system: HLA-A*02:01
# measurement.protocol: IEDB peptide-MHC binding, purified MHC/direct/fluorescence; filed as Kd, often an IC50 or EC50 that approximates it; bounds were set here for any values at or beyond the usual limits of such assays
# test.context: source organism: Influenza A virus (A/camel/Mongolia/1982(H1N1))
endpoint.name: Kd

[ask] API: value(readout= Kd, system= HLA-A*02:01, query= `HIPEVCLKW` )
[reply] ≥ 20 µM

====

# test.system: HLA-A*02:02
# measurement.protocol: IEDB peptide-MHC binding, purified MHC/competitive/radioactivity; filed as Kd, often an IC50 or EC50 that approximates it; bounds were set here for any values at or beyond the usual limits of such assays
# test.context: source organism: Homo sapiens
Field: pKd. Provide a value for each of the sequences that follow.
Give bare numbers, as −log10 of the molar value.

Consider the reported pKd for these sequences:
[[record]]
chain = "LLHQSSDKFV"
endpoint_name = "pKd"
value_reported = 7.84

[[record]]
chain = "KLREYEAAL"
endpoint_name = "pKd"
value_reported = 7.56

[[record]]
chain = "KLTKDFSAL"
endpoint_name = "pKd"
value_reported = 7.69


Lab note: next sequence to report on.
[ask] Which pKd value is on record for `ELEQTYHAKL` ?
[reply] 5.55

====

# test.system: HLA-B*48:01
# measurement.protocol: IEDB peptide-MHC binding, purified MHC/direct/fluorescence; filed as Kd, often an IC50 or EC50 that approximates it; bounds were set here for any values at or beyond the usual limits of such assays
# test.context: source organism: Francisella tularensis subsp. holarctica LVS
endpoint.name: Kd

[ask] Which Kd value is on record for `FQVNRFTGY` ?
[reply] ≥ 20 µM

The origin of these recorded values is the Immune Epitope Database (IEDB).
